B1: Somatostatin receptor type 3 (Mus musculus), P30935 (parent)
chain: MATVTYPSSEPTTLDPGNASSTWPLDTTLGNTSAGASLTGLAVSGILISLVYLVVCVVGLLGNSLVIYVVLRHTSSPSVTSVYILNLALADELFMLGLPFLAAQNALSYWPFGSLMCRLVMAVDGINQFTSIFCLTVMSVDRYLAVVHPTRSARWRTAPVARTVSAAVWVASAVVVLPVVVFSGVPRGMSTCHMQWPEPAAAWRTAFIIYTAALGFFGPLLVICLCYLLIVVKVRSTTRRVRAPSCQWVQAPACQRRRRSERRVTRMVVAVVALFVLCWMPFYLLNIVNVVCPLPEEPAFFGLYFLVVALPYANSCANPILYGFLSYRFKQGFRRILLRPSRRIRSQEPGSGPPEKTEEEEDEEEEERREEEERRMQRGQEMNGRLSQIAQAGTSGQQPRPCTGTAKEQQLLPQEATAGDKASTLSHL
partner: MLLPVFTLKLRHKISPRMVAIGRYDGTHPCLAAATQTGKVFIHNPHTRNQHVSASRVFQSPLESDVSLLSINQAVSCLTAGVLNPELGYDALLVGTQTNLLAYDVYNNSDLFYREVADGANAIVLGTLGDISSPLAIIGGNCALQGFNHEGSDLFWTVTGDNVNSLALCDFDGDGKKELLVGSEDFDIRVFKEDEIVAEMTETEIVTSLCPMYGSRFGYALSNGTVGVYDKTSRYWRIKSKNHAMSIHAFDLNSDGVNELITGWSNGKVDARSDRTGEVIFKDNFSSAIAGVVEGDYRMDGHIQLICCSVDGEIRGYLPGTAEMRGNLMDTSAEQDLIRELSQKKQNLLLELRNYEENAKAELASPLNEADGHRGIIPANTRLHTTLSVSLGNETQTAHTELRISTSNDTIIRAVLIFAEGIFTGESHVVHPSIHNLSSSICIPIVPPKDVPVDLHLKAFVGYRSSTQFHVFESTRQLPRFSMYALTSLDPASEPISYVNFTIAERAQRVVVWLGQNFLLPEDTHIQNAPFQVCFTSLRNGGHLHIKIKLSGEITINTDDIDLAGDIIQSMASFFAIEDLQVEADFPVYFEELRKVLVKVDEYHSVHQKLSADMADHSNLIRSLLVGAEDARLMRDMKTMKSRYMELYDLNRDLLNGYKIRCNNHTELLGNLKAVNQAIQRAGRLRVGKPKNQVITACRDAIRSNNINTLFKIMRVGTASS

Variants of: B1
Settings: with bbs2_human BBS2, Q9BXC9

{"VARIANT_DESCRIPTOR": "A243F;Q247F", "effect of a mutation on the interaction": "increasing interaction"}
{"VARIANT_DESCRIPTOR": "Q247A", "effect of a mutation on the interaction": "increasing interaction"}
{"VARIANT_DESCRIPTOR": "P244A;Q247A", "effect of a mutation on the interaction": "increasing interaction"}
